System: PRKG1;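 further: KINOMEscan kinase panel screen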
CONDITION NOTES: concentration: 1 μM, replicates: in singlicate; n = 1
Reported %Inh is given for each of the following molecules.
Write it as a number; the unit % goes unstated.

Sample answers from the record:
{"columns": ["MOLECULE", "%Inh (%)"],
 "data": [
  ["Cn1c(=O)c(F)c(Nc2ccc(I)cc2F)c2c(=O)n(OC[C@H](O)CO)cnc21", 8],
  ["Nc1nc(N)c2nc(-c3ccccc3)[nH]c2n1", 12],
  ["Nc1ncnc2c1ncn2-c1ccc(Cl)cc1", 2]
]}

Tell me measured %Inh for "Cl.NS(=O)(=O)c1cccc(Nc2cc(-c3ccc(F)cc3)n[nH]2)c1" please.
0

Return %Inh for the following molecule: "Cc1nn2c(=O)cc(N3CCOCC3)nc2n1Cc1cccc(Cl)c1Cl"
0

Quote %Inh reported for "CCC(=O)c1c(-c2ccccc2)c2cc(Cl)ccc2c(=O)n1Cc1ccc(C(=O)O)cc1" please.
0

Look up and report measured %Inh for this entry: "Nc1nc(-c2ccccc2F)c(-c2ccnc3ccccc23)s1"
1

Reference source: paper PMC5540273
